- measurement_target: Rat RGMa-His (rat) (UniProt D4A188)
- experimental_protocol: BIAcore; Ab captured on CM5 chip via anti-hIgG Fc Ab, antigen injected; 1:1 Langmuir fit
value_kind: koff (s⁻¹)
Enter your answer as a number in s⁻¹; do not include the unit.

query: Value lookup for koff; key = h5F9.AM11 (antibody, V domains shown, also called RGMA-h5F9AM; 11; RGMA-h5F9pJP302/pJP 303 hIgG1/K mut) VH: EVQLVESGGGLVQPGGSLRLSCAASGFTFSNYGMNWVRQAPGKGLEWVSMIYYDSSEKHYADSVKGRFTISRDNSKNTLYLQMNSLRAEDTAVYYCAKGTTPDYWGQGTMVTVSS VL: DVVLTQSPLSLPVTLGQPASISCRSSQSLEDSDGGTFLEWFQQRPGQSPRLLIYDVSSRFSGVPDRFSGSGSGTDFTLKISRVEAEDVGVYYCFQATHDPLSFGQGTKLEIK
result: 5.2e-05

The origin of these recorded values is patent EP4817631A2.
